List of fold-change over parental HEK293 values.
target: T1, human TMEM106B (human, UniProt Q9NUM4 2-274); assay: FACS, HEK293 transfectants;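 further: flow cytometry binding of hybridoma supernatants to HEK293 cells transiently expressing human, cyno or mouse TMEM106B, read as anti-mouse-APC median fluorescence, live cells only, 30 min on ice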
T1 construct: Full-length, on transiently transfected HEK293 cells, or natively expressed on HeLa, U251 and A549 cells; also called huTMEM106B; huTMEM
Give the value in fold but do not write fold after it.

Guide cases for fold-change over parental HEK293, answers given:
1. anti-TMEM106B antibody TM-4 (antibody, V domains shown) VH: EVQVQQSGPVLVKPGASVKMSCKASGYTFTDYYMNWVKQSHGKNLEWIGVINPYNGGTSYHQKFKGKATLTVDKSSSTAYMELNSLTSEDSAVYYCARAATVVAGFDYWGQGTTLTVSS VL: QAVVTQESALTTSPGETVTLTCRSSTGAVTTSNYANWVQEKPDHLFTGLIGGTNNRAPGVPARFSGSLIGDKAALTITGAQTEDEAIYFCVLWYSNHLVFGGGTKLTVL; 1.13
2. anti-TMEM106B antibody TM-23 (antibody, V domains shown) VH: QVQLQQSGAELIRPGTSVKVSCKASGYAFTNYLIEWVKKRPGQGLEWIGVINPGSGITNYNEKFKGKATLTADKSSSTAYMQLSSLTSEDSAVYFCARSDFITTVVADYWGQGTTVTVSS VL: DIVVTQTPLSLPVSFGDQVSISCRSSQSLTNYYGNTYLSWYLHKPGQSPQLLIYGISNRFSGVPDRFSGSGSGTDFTLKISTIKPEDLGMYYCLQGTHQPRTFGGGTKLEIK; 7.09

Continue with the binder presented below.
In plain terms, anti-TMEM106B antibody TM-13 (antibody, V domains shown) VH: QVQLQQSGAELVKPGASVKMSCKASGYTFTTFPIEWMKQSHGKGLEWIGNFHPYNDDTKYNEKFKGKATLTVDKSSSTVYLDLSRLTSDDSAVYYCARYFYGGMDYWGQGTSVTVSS VL: DIQMTQSPASLSVSVGETVTITCRASENIYSSLGWYQQKQGESPQLLVFAATNLADGVPSRFSGSGSGTQYSLKINSLQSEDFGTYYCQHLWSIPWTFGGGTRLEIK has a documented fold-change over parental HEK293 of 36.7
